Tested on: Rattus norvegicus
Assay: Inhibition of MetAP2 level in Sprague-Dawley rat thymus assessed as free enzyme level at 0.3 mg/kg, po by ELISA
Assay type: functional, organism-based
Set-up: dose 0.3 mg/kg
Active and inactive are the calls of the source. The calls are words filed in the database; no cut-off is given here.
Returns: one label drawn from 1.0 (active), 0.0 (inactive)

Completed entries (count: 2):
>>> print(df.to_string())
                           structure_smiles  class_label
0  CO[C@@H]1[C@H](OC(=O)N[C@@H](C(N)=O)C(C)C)CC[C@]2(CO2)[C@H]1[C@@]1(C)O[C@@H]1CC=C(C)C          1.0
1  CO[C@@H]1[C@H](OC(=O)N[C@@H](C(N)=O)C(C)(C)O)CC[C@]2(CO2)[C@H]1[C@@]1(C)O[C@@H]1CC=C(C)C          1.0

Which outcome was assigned to CO[C@@H]1[C@H](OC(=O)N[C@@H](C(N)=O)C(C)C)CC[C@]2(CO2)[C@H]1[C@@]1(C)O[C@@H]1C/C=C(\C)CO in this test?
0.0

Ok, now CO[C@@H]1[C@H](OC(=O)N[C@@H](C(N)=O)C(C)C)CC[C@]2(CO2)[C@H]1[C@@]1(C)O[C@@H]1C[C@@H]1OC1(C)C
0.0

Ok, now CO[C@@H]1[C@H](OC(=O)N[C@@H](C(N)=O)C(C)C)CC[C@]2(CO2)[C@H]1[C@@]1(C)O[C@@H]1C[C@H]1OC1(C)C
0.0

---

System: CYP3A4 (Homo sapiens)
Test: Activity of human recombinant CYP3A4 assessed as ((3R,4S,5S,6R)-5-methoxy-4-((2R,3R)-2-methyl-3-(3-methylbut-2-en-1-yl)oxiran-2-yl)-1-oxaspiro[2.5]octan-6-yl ((R)-1-amino-3-hydroxy-3-methyl-1-oxobutan-2-yl)carbamate) formation
Settings: recombinant enzyme
MEASURE: Km (µM)
// units = µM; emit number, no label

Given the entry CO[C@@H]1[C@H](OC(=O)N[C@@H](C(N)=O)C(C)C)CC[C@]2(CO2)[C@H]1[C@@]1(C)O[C@@H]1CC=C(C)C [PPI-2458] , report its measured Km.
27
